Attribution: PubChem BioAssay AID330

system: P388 leukemia ip, CD2F1 mice, survival T/C; assay: NCI In Vivo Anticancer Drug Screen. Data for tumor model P388 Leukemia (intraperitoneal) in CD2F1 (CDF1) mice; details: endpoint: median survival time; dose: 50.0 mg/kg/injection; schedule: Q01DX009 (ip); vehicle: other; higher = longer survival
Inconclusive results and toxic doses are left out.
recorded-endpoint: T/C

INSERT INTO results (molecule, meas_value) VALUES
  ('COc1ccc(C(=O)OC2(C)CC(C)(C)N=[N+]2[O-])cc1 (configuration not stated)', '115 % of control');

Request: Supply measured T/C of CNC(=S)NNc1ccccn1 in your reply.
Response: 104 % of control

Request: Supply measured T/C of CC(=O)SC(C(=O)O)C(SC(C)=O)C(=O)O (configuration not stated) in your reply.
Response: 115 % of control

Request: Supply measured T/C of COC(=O)Nc1cnc(C=O)c(C)c1-c1ccc(OC)c(OC)c1OCc1ccccc1 in your reply.
Response: 110 % of control

Request: Supply measured T/C of O=NN(c1cccc(C(F)(F)F)c1)c1ccccn1 in your reply.
Response: 108 % of control

Request: Supply measured T/C of CC1(C)CC(C)(OC(=O)c2ccccc2Cl)N=N1 (configuration not stated) in your reply.
Response: 103 % of control

Request: Supply measured T/C of COc1ccc2nc3cc(Cl)ccc3c(Nc3cccc(NC(C)=O)c3)c2n1 in your reply.
Response: 98 % of control
